- Test system: GI-1;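 also: growth inhibition of human GI-1 cells, measured with a cell viability readout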
- Experiment notes: cells
- Type: functional, cell-based, Homo sapiens
- Cond: Homo sapiens, GI-1
- Description: SANGER: Inhibition of human GI-1 cell growth in a cell viability assay.
Each entry below carries its recorded IC50.
Measurement kind: IC50

{"Compound": "C=CC(=O)N1CCCC(Nc2nc(Nc3ccc(N(C)C(=O)CC)cc3)nc3[nH]cnc23)C1 (stereo not drawn)", "Measurement kind": "IC50", "Result": "> 10200 nM"}
{"Compound": "OC[C@H](Cc1ccccc1)Nc1nc(Oc2ccc3c(c2)CCC3)nc2c1ncn2Cc1ccc(-c2ccccc2)cc1", "Measurement kind": "IC50", "Result": "7900 nM"}
{"Compound": "C/C(=C\\c1csc(C)n1)[C@@H]1C[C@@H]2O[C@]2(C)CCC[C@H](C)[C@H](O)[C@@H](C)C(=O)C(C)(C)[C@@H](O)CC(=O)O1 [PATUPILONE]", "Measurement kind": "IC50", "Result": "2.43 nM"}
{"Compound": "Cc1ccc(NC(=O)c2ccc(CN3CCN(C)CC3)cc2)cc1Nc1nccc(-c2cccnc2)n1 [IMATINIB]", "Measurement kind": "IC50", "Result": "> 2000 nM"}
{"Compound": "Cc1ccc(-n2nc(C(C)(C)C)cc2NC(=O)Nc2ccc(OCCN3CCOCC3)c3ccccc23)cc1 [DORAMAPIMOD]", "Measurement kind": "IC50", "Result": "> 10000 nM"}
{"Compound": "O=C(NCCCNc1nc(Nc2cccc(NC(=O)N3CCCC3)c2)ncc1I)c1cccs1 [BX-795]", "Measurement kind": "IC50", "Result": "> 5000 nM"}
{"Compound": "CO[C@@H]1[C@H](N(C)C(=O)c2ccccc2)C[C@H]2O[C@]1(C)n1c3ccccc3c3c4c(c5c6ccccc6n2c5c31)C(=O)NC4 [MIDOSTAURIN]", "Measurement kind": "IC50", "Result": "319 nM"}
{"Compound": "NC(=O)c1ccc(N(C(N)=O)c2c(F)cccc2F)nc1-c1ccc(F)cc1F [VX-702]", "Measurement kind": "IC50", "Result": "> 2000 nM"}

* * *

- Tested on: SCLC-21H;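 also: growth inhibition of cultured human SCLC-21H cells, read out with a cell viability assay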
- Experiment notes: cells
- Format: functional, cell-based, Homo sapiens
- Cond: Homo sapiens, SCLC-21H
- Description: SANGER: Inhibition of human SCLC-21H cell growth in a cell viability assay.
Each entry below carries its recorded IC50.

{"Compound": "CCCCCCCCCCCC1=C(O)C(=O)C=C(O)C1=O", "Assayed system": "SCLC-21H", "IC50": "> 32 µM"}
{"Compound": "COC(=O)[C@H](CCSC)NC(=O)c1ccc(NC[C@@H](N)CS)cc1-c1ccccc1", "Assayed system": "SCLC-21H", "IC50": "> 1.02 µM"}
{"Compound": "Nc1ccccc1NC(=O)c1ccc(CNC(=O)OCc2cccnc2)cc1", "Assayed system": "SCLC-21H", "IC50": "1.26 µM"}
{"Compound": "Cc1ccc(C(=O)Nc2ccc(CN3CCN(C)CC3)c(C(F)(F)F)c2)cc1C#Cc1cnc2cccnn12", "Assayed system": "SCLC-21H", "IC50": "> 0.512 µM"}
{"Compound": "COc1ccc(-c2cc3nccn3c(Nc3ncccc3C(N)=O)n2)cc1OC", "Assayed system": "SCLC-21H", "IC50": "> 8 µM"}
{"Compound": "C=CC(=O)N1CCCC(Nc2nc(Nc3ccc(N(C)C(=O)CC)cc3)nc3[nH]cnc23)C1 (stereo unspecified)", "Assayed system": "SCLC-21H", "IC50": "> 10.2 µM"}
